The reported numbers originate from ChEMBL document CHEMBL4265871.

System: Aspergillus nidulans
method summary: Antifungal activity against Aspergillus nidulans ATCC 38163 incubated for 48 hrs by CLSI M38-A2 protocol based method
Assay type: functional
assay setup: ATCC 38163, 48 h, read-out: MIC100
Reported MIC values follow for various compounds

compound | quantity unit | relation operator | MIC
CCCC(O)(Cn1cncn1)c1ccc(F)cc1F (stereo not drawn) | µM | = | 29.2
CCCCC(O)(Cn1cncn1)c1ccc(Cl)cc1Cl (stereo not drawn) | µM | = | 0.76
CCCCCCC(O)(Cn1cncn1)c1ccc(F)cc1F (stereo not drawn) | µM | = | 1.6
CCCCCCC(O)(Cn1cncn1)c1ccccc1Cl (stereo not drawn) | µM | = | 0.19
CCCCCCC(O)(Cn1cncn1)c1cccc(F)c1 (stereo not drawn) | µM | = | 13.4
CCCCCCCCCCCCC(O)(Cn1cncn1)c1ccc(F)cc1F (stereo not drawn) | µM | = | 1.2
CCCCCC(O)(Cn1cncn1)c1ccccc1F (stereo not drawn) | µM | = | 1.7
CCCC(O)(Cn1cncn1)c1ccc(Cl)cc1Cl (stereo not drawn) | µM | = | 6.5
CCCCCC(O)(Cn1cncn1)c1cccc(F)c1 (stereo not drawn) | µM | = | 0.87
CCC(O)(Cn1cncn1)c1ccc(F)cc1F (stereo not drawn) | µM | = | 124
CCCCCCC(O)(Cn1cncn1)c1ccc(F)cc1 (stereo not drawn) | µM | = | 6.7
CCCCCCC(O)(Cn1cncn1)c1ccc(Cl)cc1 (stereo not drawn) | µM | = | 12.7
CC[C@H](C)C[C@H](C)CCCCCCCCC(=O)N[C@H]1C[C@@H](O)[C@@H](NCCN)NC(=O)[C@@H]2[C@@H](O)CCN2C(=O)[C@H]([C@H](O)CCN)NC(=O)[C@H]([C@H](O)[C@@H](O)c2ccc(O)cc2)NC(=O)[C@@H]2C[C@@H](O)CN2C(=O)[C@H]([C@@H](C)O)NC1=O | µM | > | 26
CCCCCC(O)(Cn1cncn1)c1ccc(F)cc1 (stereo not drawn) | µM | = | 14.1
CCCCCC(O)(Cn1cncn1)c1cccc(Cl)c1 (stereo not drawn) | µM | = | 0.2
CCCCC(O)(Cn1cncn1)c1ccc(F)cc1F (stereo not drawn) | µM | = | 6.9
CCCCCC(O)(Cn1cncn1)c1ccc(F)cc1F (stereo not drawn) | µM | = | 3.3
CCCCCC(O)(Cn1cncn1)c1ccccc1Cl (stereo not drawn) | µM | = | 3.3
CCCCCCC(O)(Cn1cncn1)c1cccc(Cl)c1 (stereo not drawn) | µM | = | 12.7
CCCCCC(O)(Cn1cncn1)c1ccc(Cl)cc1Cl (stereo not drawn) | µM | = | 1.5
CC(O)(Cn1cncn1)c1ccc(F)cc1F (stereo not drawn) | µM | = | 131
CCC(O)(Cn1cncn1)c1ccc(Cl)cc1Cl (stereo not drawn) | µM | = | 27.3
CCCCCCCCC(O)(Cn1cncn1)c1ccc(F)cc1F (stereo not drawn) | µM | = | 1.4

====

method summary: Selectivity index, ratio of EC50 for toxicity in human A549 cells to MIC50 for antifungal activity against ITC and FLC-susceptible Candida albicans ATCC MYA-2310
Assay type: cell-based
assay setup: read-out: Selectivity Index
Threshold 9: selectivity ratio strictly smaller gives y, otherwise n.

molecule | group label
CCCCCCC(O)(Cn1cncn1)c1ccc(F)cc1 (configuration not stated) | y
CCCCCC(O)(Cn1cncn1)c1ccccc1Cl (configuration not stated) | n
CCCCC(O)(Cn1cncn1)c1ccc(F)cc1F (configuration not stated) | y
CCCCCC(O)(Cn1cncn1)c1ccc(Cl)cc1 (configuration not stated) | y
CCCCCC(O)(Cn1cncn1)c1ccc(Cl)cc1Cl (configuration not stated) | n
CCCCCCCCC(O)(Cn1cncn1)c1ccc(F)cc1F (configuration not stated) | y
